All values here come from paper PMC3968228.

experimentalSetup: male, FVB, mouse, plasma, iv, 20 mg/kg
observedProperty: Cmax
Write the numeric value and append its unit.

Just so you know, measured Cmax for CC(=O)O[C@@]12CO[C@@H]1C[C@H](O)[C@@]1(C)C(=O)[C@H](O)C3=C(C)[C@@H](OC(=O)[C@H](O)[C@@H](NC(=O)OC(C)(C)C)c4ccccc4)C[C@@](O)([C@@H](OC(=O)c4ccccc4)[C@H]21)C3(C)C came out at 18100 ng/mL

---

experimentalSetup: male, FVB, mouse, plasma, iv, 20 mg/kg
observedProperty: AUC(0-inf) (ng·h/mL)
Unit ng·h/mL implied. Number only.

The value of AUC(0-inf) measured for the compound CC(=O)O[C@@]12CO[C@@H]1C[C@H](O)[C@@]1(C)C(=O)[C@H](O)C3=C(C)[C@@H](OC(=O)[C@H](O)[C@@H](NC(=O)OC(C)(C)C)c4ccccc4)C[C@@](O)([C@@H](OC(=O)c4ccccc4)[C@H]21)C3(C)C [Docetaxel] turned out to be 10300
